Experiment: Toxicity liver stage against HepG2, at 10uM
Type: cell-based
Design: test concentration 10 uM, cell line HepG2-A16-CD81EGFP
Conditions: human, HepG2-A16-CD81EGFP cells; read-out: INHIBITION
metric.name: cytotoxicity at 10 µM

Dear colleague, I am looking for the recorded cytotoxicity at 10 µM of the following compound: Cc1nc(CN2CCN(Cc3nccn3C)CC2)no1
3.44%

Recorded cytotoxicity at 10 µM for Cc1cc(C)cc(CCC(=O)N(C)CCc2cn[nH]c2)c1 , please?
3.04%

Look up cytotoxicity at 10 µM for the entries below, preserving their order.
1. CS(=O)(=O)N1CCCC12CCN(Cc1nccs1)CC2
2. CNc1ncc(CN2CCCC2c2[nH]ncc2C(=O)N(C)C)cn1 (stereo not given)
3. COc1ccccc1CNC(Cn1cncn1)c1ccccc1 (stereo not given)
4. Cc1cc(Nc2nc(C)cc(C)n2)cc(C2CCCN2)n1 (stereo not given)

8.1%
2.91%
-6.1%
0.407%

# batch size: 8; output cytotoxicity at 10 µM per entry
1. COCCN1CCN(C(=O)C[C@@H]2C[C@@H](C(C)C)[C@H](CO)C=C2C)CC1
2. Cc1ccc(-c2cc(CNC(=O)N3CCCN(C)CC3)on2)cc1
3. CC(C1CCN(Cc2ccccc2OC(F)F)CC1)N1CCOCC1 (stereo not given)
4. CCCN(C(=O)c1ccccn1)c1nc2c(s1)CCc1c-2cnn1C
5. Cc1cccc(OCCNC(=O)Cn2ccc(C)cc2=O)c1
6. c1cc(CN2CCc3cncnc3C2)c2c(c1)OCCO2
7. OCC(O)CN1CCc2onc(-c3ccc(C(F)(F)F)cc3)c2C1 (stereo not given)
8. Cc1cccc(CN2CCc3onc(CO)c3C2)n1

4.82%
-5.19%
-7.4%
6.23%
-1.63%
-3.67%
-3.24%
6.81%

Provide cytotoxicity at 10 µM for all items below, preserving their order.
1. CCc1nnsc1C(=O)N(C)Cc1ccc(Br)o1
2. COCCc1noc(CN2CCCC2Cn2cc(C)cn2)n1 (stereo not given)
3. CC(C)CN1CCC2(COCc3cnc(-c4ccccc4)nc32)C1 (stereo not given)
4. O=C(CCN1CCCN(c2nccs2)CC1)Nc1ccccc1
5. CC(=O)NCC(=O)N1CCC(c2cncc(Oc3cccnc3)n2)CC1

["-48.8%", "-3.32%", "-103%", "10.5%", "-19.5%"]

Below is a list of compounds. For each, state its recorded cytotoxicity at 10 µM.
1. CN(Cc1ccco1)C(=O)c1ccc(=O)n(C)c1
2. CNc1snc(C)c1C(=O)N1CCCC(n2cc(C)cn2)C1 (stereo not given)
3. CC(C)N1CCCC(C(=O)NCc2noc(Cc3ccccc3)n2)C1 (stereo not given)
4. CNc1nc(C(=O)N2C[C@@H]3CCN(C)[C@@H]3C2)cs1

1. -47.5%
2. -3.42%
3. -1.49%
4. -10.8%

Each of the following entries comes with a recorded value; kindly state cytotoxicity at 10 µM for each.
1. O=C(NCCCn1nc2ccccn2c1=O)Nc1ccccc1Cl
2. COc1ccccc1OC1CCN(C(=O)c2cnc(C)cc2C)CC1

["-22.3%", "4.36%"]

----------
Provide the recorded cytotoxicity at 10 µM for the entries that follow.
Assay: Toxicity liver stage against HepG2, at 10uM
Format: cell-based
Set-up: test concentration 10 uM, cell line HepG2-A16-CD81EGFP
Conditions: human, HepG2-A16-CD81EGFP cells; read-out: INHIBITION
Give bare numbers, in %.

Answered examples (4):
Look at this compound and give its reported cytotoxicity at 10 µM. Cc1cccc(C(=O)Oc2cc(=O)n3cccc(C)c3n2)c1
1.11

Consider the compound shown here: CNCCCNC1CCN(c2ccc(-n3ccnc3)cc2)CC1 What is its recorded cytotoxicity at 10 µM?
-3.03

Could you share which cytotoxicity at 10 µM value was measured for CC(CO)(NCc1noc(Cc2ccccc2)n1)C1CCCCC1 (stereo unspecified) ?
-17.2

# input compound: CS(=O)(=O)N1CCC(NC(=O)COc2ccc(Cl)c(Cl)c2)CC1 ; wanted: its cytotoxicity at 10 µM
-6.46

I'm hoping you can list cytotoxicity at 10 µM for every compound here, please.
1. O=C1CN([C@@H]2CC[C@@H](NS(=O)(=O)c3ccccc3)[C@H]2O)CCN1
2. CCSc1cc(C(=O)NCCNC(=O)Cc2ccccc2)ccn1
3. Fc1cccc(-c2nc(CN3CCOC(Cn4cccn4)C3)co2)c1 (stereo unspecified)
4. CNc1ncccc1CN1CCN(c2cc(NC3CC3)nc(N)n2)CC1
5. Cc1cc(C2CCC2)nc(N2CCC3(CCNC(=O)CC3)CC2)n1

1: 7.41; 2: -6.41; 3: -5.6; 4: -6.58; 5: -10.1

Would you be so kind as to report cytotoxicity at 10 µM for each listed record?
1. O=C(c1cccc(F)c1)N1CCC2(CC1)CN(c1ccccn1)CCO2
2. CC(SCCC(=O)NC(N)=O)c1cccc(F)c1 (stereo unspecified)

-74.1
5.28

----------
Would you kindly list cytotoxicity at 10 µM for each of these molecules?
Assay: Toxicity liver stage against HepG2, at 10uM
Format: cell-based
Set-up: test concentration 10 uM, cell line HepG2-A16-CD81EGFP
Settings: human, HepG2-A16-CD81EGFP cells; read-out: INHIBITION
Numbers only, in %.

Form field: reported cytotoxicity at 10 µM of Cc1nc(C(C)C)ncc1C(=O)N1CCCC(N2CCCC2)C1 (centres undefined)
-20.1

I would be grateful if you could share the reported cytotoxicity at 10 µM for CCCC(=O)N1CCC2(CC1)CC(NC(C)=O)c1ccccc1O2 (centres undefined) .
5.08

Batch lookup, cytotoxicity at 10 µM per entry.
1. COc1ccc(COCC(O)CNC(=O)c2ccc(C)c(F)c2)cc1 (centres undefined)
2. O=C(Cn1nc(-c2cccs2)ccc1=O)N1CCCCCC1
3. NC(=O)N1CCCC1COC(=O)c1ccc(F)cc1Br (centres undefined)
4. CC(=O)Nc1nc(-c2ccccc2)c[nH]1
5. CN1CCN(c2ccc(CO)cc2F)CC1
6. CN1CCC2(CC1)CN(C(=O)c1cnccn1)Cc1ccccc12
7. O=C(N[C@@H]1CN(Cc2ccc(F)c(F)c2)C[C@H]1O)c1cscn1
8. CCC[C@H]1CN(Cc2ccccc2C#N)C[C@@H]1NS(C)(=O)=O

1. -0.584
2. -2.7
3. 0.616
4. -1
5. -42
6. -82.2
7. -3.78
8. -11

For every item below, please supply its cytotoxicity at 10 µM.
1. CC(C)NC(=O)Nc1nc2c(s1)CN(C(=O)NCc1cccs1)CC2
2. CN1CC(=O)N(c2cccc(F)c2)CC12CCN(Cc1ccco1)C2 (centres undefined)
3. Cc1oc(C)c(C(=O)NCc2cccnc2)c1C
4. CC(=O)c1ccc(S(=O)(=O)NCC2CCN(c3cnccn3)CC2)cc1
5. CCc1nnc2n1CCN(C(=O)c1cc(Br)c[nH]1)C2
6. O=C1O[C@@H]2CN(C3CCOCC3)C[C@@H]2N1CCc1cccc(Cl)c1
7. CNS(=O)(=O)c1ccc(CN2CCCC2c2ccc(F)cc2)cc1 (centres undefined)

33
4.06
5.19
0.723
-7.93
-1.11
11.6

----------
Test: Toxicity liver stage against HepG2, at 10uM
Assay type: cell-based
Design: test concentration 10 uM, cell line HepG2-A16-CD81EGFP
Conditions: human, HepG2-A16-CD81EGFP cells; read-out: INHIBITION
metric.name: cytotoxicity at 10 µM (%)
Numbers only, in %.

Solved entries (count: 3):
Give its cytotoxicity at 10 µM value. Item: Cn1cc(-c2nnn3c2COC(CNCC2CCOCC2)C3)cn1 (stereo unspecified)
0.171

# get_value(readout='cytotoxicity at 10 µM', item= CCNc1ncc(C(=O)NCc2ccc(F)c(C(F)(F)F)c2)cn1 )
-5.96

Fill in: cytotoxicity at 10 µM of CC(=O)N1CCC(c2nccnc2Nc2cnccn2)CC1 is ___
4.51

Please supply cytotoxicity at 10 µM for each of the following items, keeping them in order.
1. O=C1COC2(COCCN(Cc3cccnc3)C2)CN1c1ccoc1 (stereo unspecified)
2. CCS(=O)(=O)Nc1ccn(Cc2c(F)cccc2Cl)n1

3.22
7.77

Which cytotoxicity at 10 µM is listed for O=C1N(c2cccnc2)CCC12CCCN(Cc1ccoc1)C2 (stereo unspecified) ?
-1.6

----------
For each entry below, report its cytotoxicity at 10 µM value.
Experiment: Toxicity liver stage against HepG2, at 10uM
Format: cell-based
Set-up: test concentration 10 uM, cell line HepG2-A16-CD81EGFP
Details: human, HepG2-A16-CD81EGFP cells; read-out: INHIBITION
One number for each entry, in %.

Reported cytotoxicity at 10 µM, molecule CC(C)Cc1cc(CC2(NCc3ccco3)COC2)no1 : ____
6.25

May I ask what cytotoxicity at 10 µM has been recorded for Cc1cc(=O)n2ncnc2n1CC(O)c1ccc(F)cc1F (configuration not stated) ?
-1.2

So what does the record say about cytotoxicity at 10 µM for CNC1CCN(C2CCN(c3ccc(-c4ccco4)cc3)CC2)CC1 ?
-22.4

Entry Cc1nnsc1C(=O)N1CCC2(CC1)c1nc[nH]c1CCN2CC(C)C has what cytotoxicity at 10 µM?
26.3

Record request: cytotoxicity at 10 µM value, item CCCn1cc(S(=O)(=O)N[C@H]2CN(CCO)C[C@@H]2C2CC2)cn1
-11.3

State recorded cytotoxicity at 10 µM for all listed molecules.
1. Cc1noc(OCCOc2ccc(C#N)cc2)n1
2. CN(CCCOc1ccccc1Cl)C(=O)CN1CCCCCC1=O
3. OC1(Cn2ccc3ncccc32)CCN(Cc2ccccn2)CC1
4. CC(C)(CCS(C)(=O)=O)CNC(=O)NC1CCCC1(C)C (configuration not stated)

1: 0.00742; 2: -9.63; 3: 5.33; 4: 6.7

Quick request: cytotoxicity at 10 µM for each listed item, please.
1. Cc1nc(CN(C)C(=O)c2ccc(Cn3cnnn3)cc2)cs1
2. Cc1nc(N)c2ccc(C3CCCCN3)nc2n1 (configuration not stated)
3. O=C(C1CCCO1)N1CCC2(CC1)COCCN(Cc1cccnc1)C2 (configuration not stated)

-15.4
-0.05
-108
